# assay method text: MELAS cybrid and Rieske KO viability enhancers – cell-based, MELAS cybrids, Rieske KO mouse fibroblasts, CellTiter-Glo, primary screen (AID 1508586);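 further: z relative to plate mean and SD of compound and empty wells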
# measurement setup: Rieske KO mouse fibroblast survival, low glucose, CellTiter-Glo 72 h
Below, each entry is listed with its recorded z-score.
Enter a number only.

Guide cases for z-score, answers given:
>  <record smiles>
COc1ccc(-n2c(SCCCN3C(=O)c4cccc5cccc(c45)C3=O)nnc2-c2ccncc2)cc1

>  <z-score>
1.13

$$$$
>  <record smiles>
NC(=O)c1ccc(N(C(N)=O)c2c(F)cccc2F)nc1-c1ccc(F)cc1F

>  <z-score>
-0.467

$$$$
>  <record smiles>
Cn1cnc(-c2cc3nccc(Oc4ccc(NC(=S)NC(=O)Cc5ccccc5)cc4F)c3s2)c1

>  <z-score>
-0.0569

$$$$

Input line: // returns reported z-score for input Cc1ncc(-c2ccnc(Nc3ccc(S(C)(=O)=O)cc3)n2)n1C(C)C
Output line: -2.84

* * *

# assay method text: viability loss in pontine glioma line – cell-based, SU-DIPG-XVII, MIPE5.0, CellTiter-Glo, qHTS, dose response (AID 1347060);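 on AC50: cells exposed to compound for 48 hours before viability readout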
# measurement setup: CellTiter-Glo ATP luminescence
Results filed as inconclusive are left out. Active and inactive are the calls of the source. The limit is not given here; nearly all actives have AC50 up to about 26 µM.
Entry note: the call must match one of 1.0 = active, 0.0 = inactive

Solved entries:
>  <compound>
CCS(=O)(=O)N1CCC(C(C)n2c(C)c(C(=O)NCc3c(OC)cc(C)[nH]c3=O)c3ccccc32)CC1 (configuration not stated)

>  <group>
0.0

$$$$
>  <compound>
Cn1cc(-c2ccc3ncc(Cc4ccc5ncccc5c4)n3n2)cn1

>  <group>
0.0

$$$$
>  <compound>
Cc1cc(Nc2ncc3c(n2)N(C)C(=O)N(c2cc(NC(=O)c4cccc(C(F)(F)F)c4)ccc2C)C3)n(C)n1

>  <group>
1.0

$$$$
>  <compound>
CC[C@@H](C)[C@H](NC(=O)[C@H](CC1CCCCC1)NC(=O)c1ccno1)C(=O)N1CCC2(CCc3ccccc32)CC1

>  <group>
0.0

$$$$

Input line: Check the results log: what was the call for CN(C)CC(=O)N1CCC(c2ccc(NC(=O)c3ncc(C#N)[nH]3)c(C3=CCCCC3)c2)CC1 ?
Output line: 1.0

Input line: Field entry: O=C(O)[C@H](CC(=O)N1C[C@H]2CCCC[C@H]2C1)Cc1ccccc1
Output line: 0.0

Input line: Also need CC(=O)Nc1ccc(C(=O)Nc2ccccc2N)cc1 , thanks.
Output line: 1.0

Input line: Ok, now Nc1nc(N)c2nc(-c3cccc(Cl)c3)c(N)nc2n1
Output line: 1.0

Input line: And then O=C(Nc1ccc(-c2ccnc(Nc3ccc(N4CCOCC4)cc3)n2)cc1)C1CCCN1 (configuration not stated) , what is it?
Output line: 1.0

Input line: Same thing, different compound: CC(C)(C)c1[nH]cnc1/C=c1\[nH]c(=O)/c(=C/c2ccccc2)[nH]c1=O
Output line: 1.0

Input line: Ok, now Cn1cc(-c2ccc(S(=O)(=O)n3ccc(/C=C/C(=O)Nc4ccccc4N)c3)cc2)cn1
Output line: 1.0

Input line: Again, but for Nc1nccn2c(C3CCC(C(=O)O)CC3)nc(-c3cc4cccc(Cl)c4[nH]3)c12 (configuration not stated)
Output line: 1.0

* * *

# assay method text: growth inhibition, single agent or in combination, cell-based, chromothripsis tumors, cisplatin or BGB combos (AID 1671449);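 further: cells exposed for 96 hours; 0% = vehicle DMSO and 100% = killing by high DMSO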
# measurement setup: LFS_MB_P medulloblastoma cells, measured here: combination with cisplatin, at 5 µM, stronger effect = higher value
Here the recorded inhibition is given for each entry.
Kindly provide the numeric value in % only, without the unit symbol.

>  <record smiles>
O=C(O)[C@H](Cc1c[nH]c2ccccc12)N1C(=O)c2ccccc2C1=O

>  <inhibition [%]>
-30.6

$$$$
>  <record smiles>
CC(C)OC(=O)[C@H](C)N[P@](=O)(OC[C@H]1O[C@@H](n2ccc(=O)[nH]c2=O)[C@](C)(F)[C@@H]1O)Oc1ccccc1

>  <inhibition [%]>
-29.3

$$$$

Now look at this one.
Input line: For CN[C@@H]1CN(c2ccc3c(=O)c(C(=O)O)cn(-c4nccs4)c3n2)C[C@H]1OC , what is its reported inhibition?
Output line: 59.3

* * *

# assay method text: drug combination growth inhibition, ovarian cancer – cell-based, oncology-focused library, rucaparib conditional, profiling panel (AID 1508598)
# measurement setup: patient-derived ovarian cancer cells, CellTiter-Glo viability, 144 h; at 0.00122 µM; OCI-P5x cells; with rucaparib 20 µM; stronger effect = lower value; 100% = cells with rucaparib alone
Each entry below carries its recorded viability.
The reply should be a number in %, with the unit left off.

Input line: // lookup viability for O=C(O)[C@H](Cc1c[nH]c2ccccc12)N1C(=O)c2ccccc2C1=O
Output line: 92

Input line: Try the compound NC1(c2ccc(-c3nc4ccn5c(=O)[nH]nc5c4cc3-c3ccccc3)cc2)CCC1
Output line: 102

Input line: CCC[C@H](NC(=O)/C(C#N)=C/c1cccc(Br)n1)c1ccccc1 ?
Output line: 95.1

Input line: Then what about the compound CC1COC2(CCN(c3nc(=O)c4cc(C(F)(F)F)cc([N+](=O)[O-])c4s3)CC2)O1 (stereo not given) ?
Output line: 105

Input line: Okay, and CC(C)Oc1ccc(C(=O)N[C@H](CNC(=O)CN(C)C)Cc2ccc(-c3cn4cccc([C@H](C)O)c4n3)cc2)cc1Cl ?
Output line: 107

Input line: Please give the result for COc1ccc(S(=O)(=O)Nc2cccnc2Nc2ccc(O)cc2)cc1 too.
Output line: 118

Input line: Again, but for Cc1cnc(-c2cnc(NCCNc3ccc(C#N)cn3)nc2-c2ccc(Cl)cc2Cl)[nH]1
Output line: 101

Input line: Next entry: COc1cc(OC2CCN(C)CC2)ccc1Nc1ncc2c(n1)n(C1CCCC1)c(=O)n2C
Output line: 117

Input line: Lookup Cn1cc(CNCC2CCN(c3ncc(C(=O)NO)cn3)CC2)c2ccccc21
Output line: 104

Input line: What do you have for CN(C)Cc1c(C(=O)NCCOc2ccc(C(=O)NO)cc2)oc2ccccc12 ?
Output line: 103

* * *

# assay method text: drug combination growth inhibition, ovarian cancer – cell-based, oncology-focused library, rucaparib conditional, profiling panel (AID 1508598)
# measurement setup: patient-derived ovarian cancer cells, CellTiter-Glo viability, 144 h; at 0.0781 µM; OCI-P5x cells; without rucaparib
Active and inactive are the calls of the source.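 Rule for the calls: active = normalized viability below 100% at a tested concentration; inactive = the rest.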
Hi! Could you answer with just one of these? TRUE for active, FALSE for inactive

>  <record smiles>
CCC(CC)CC1(C(=O)Nc2ccccc2SC(=O)C(C)C)CCCCC1

>  <group>
FALSE

$$$$
>  <record smiles>
C[C@@H](Oc1cc(-n2cnc3ccc(CN4CCN(C)CC4)cc32)sc1C(N)=O)c1ccccc1C(F)(F)F

>  <group>
TRUE

$$$$
>  <record smiles>
COc1ccc(-n2c(SCCCN3C(=O)c4cccc5cccc(c45)C3=O)nnc2-c2ccncc2)cc1

>  <group>
TRUE

$$$$
>  <record smiles>
CC(C)(C)c1cc(NC(=O)Nc2ccc(-c3cn4c(n3)sc3cc(OCCN5CCOCC5)ccc34)cc2)no1

>  <group>
TRUE

$$$$
>  <record smiles>
CC(C)c1cc(-c2n[nH]c(=O)n2-c2ccc3c(ccn3C)c2)c(O)cc1O

>  <group>
TRUE

$$$$
>  <record smiles>
C=CC(=O)Nc1cccc(Nc2nc(Nc3ccc(NC4CN(CCF)C4)cc3OC)ncc2C(F)(F)F)c1

>  <group>
TRUE

$$$$
>  <record smiles>
CC(C)CC(=O)Nc1n[nH]c2c1CN(C(=O)C1CCN(C)CC1)C2(C)C

>  <group>
FALSE

$$$$
>  <record smiles>
Cn1cc(-c2ccc3nnc(C(F)(F)c4ccc5ncccc5c4)n3n2)cn1

>  <group>
FALSE

$$$$

Input line: Hi, do you know how Cc1cc2c(F)c(Oc3ncnn4cc(OC[C@@H](C)O)c(C)c34)ccc2[nH]1 came out in this test?
Output line: FALSE

Input line: Next up: Cn1cnc2c(F)c(Nc3ccc(Br)cc3Cl)c(C(=O)NOCCO)cc21
Output line: TRUE

* * *

# assay method text: viability loss with induced miR-34 in A549 – imaging, A549 dox-inducible miR-34, nuclei and caspase counts, primary screen (AID 1347080)
# measurement setup: A549 miR-34 inducible, Hoechst nuclei count, 48 h; measured here: total cells without miR-34 induction
# cell count annotations
API doc: respond with a numeric literal and nothing else, no unit.

Examples with answers:
>  <molecule>
CC[C@H](CO)Nc1nc(NCc2ccc(-c3ccccn3)cc2)c2ncn(C(C)C)c2n1

>  <cell count>
1650

$$$$
>  <molecule>
CN(C)C(=O)[C@H](O)[C@H](Cc1ccccc1)NC(=O)c1cc2cc(Cl)ccc2[nH]1

>  <cell count>
8950

$$$$
>  <molecule>
O=C1c2ccccc2C(Cc2ccnc(F)c2)(Cc2ccnc(F)c2)c2ccccc21

>  <cell count>
8760

$$$$
>  <molecule>
CCCCCCCC/C=C\CCCCCCCC(=O)Nc1c(C(C)C)cccc1C(C)C

>  <cell count>
5700

$$$$
>  <molecule>
CC(C)[C@H](C(=O)Nc1ccc(C(=O)NO)cc1)c1ccccc1

>  <cell count>
1930

$$$$
>  <molecule>
Nc1nc2c([nH]c(=O)n2[C@@H]2O[C@H](CO)[C@@H](O)[C@H]2O)c(=O)[nH]1

>  <cell count>
5600

$$$$

Input line: Need cell count, item Cc1ccc(Sc2ccccc2N2CCNCC2)c(C)c1
Output line: 5160

Input line: Could you do the same for Cc1ccc(C(=O)Nc2ccc(CN3CCN(C)CC3)c(C(F)(F)F)c2)cc1C#Cc1cnc2[nH]ncc2c1 , please?
Output line: 546

Input line: Moving on to the next molecule: O=C(O)CCC/C=C\C[C@H]1C(=O)C=C[C@@H]1CC[C@@H](O)CCc1ccccc1
Output line: 6690

Input line: Now the molecule CN(C)C(=O)CCSC(SCCC(=O)O)c1cccc(/C=C/c2ccc3ccc(Cl)cc3n2)c1 (stereo not drawn)
Output line: 5340

Input line: Try CC(C)(C)n1nc(-c2cccc3ccccc23)c2c(N)ncnc21 next.
Output line: 3350
